System name: T1, ActRIIB-Fc homodimer (UniProt Q13705 19-137)
T1 construct: extracellular domain; also called ActRIIB homodimer
T1 sequence (looked up): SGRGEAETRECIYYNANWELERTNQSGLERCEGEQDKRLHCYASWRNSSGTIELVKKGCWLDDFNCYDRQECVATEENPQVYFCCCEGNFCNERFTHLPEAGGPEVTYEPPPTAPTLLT
Assay notes: Biacore SPR
Quantity name: kon (M⁻¹ s⁻¹)

INSERT INTO assay_data (binder, quantity_name, unit_string, measured) VALUES
  ('BMP10 (ligand, UniProt O95393 317-424, looked up) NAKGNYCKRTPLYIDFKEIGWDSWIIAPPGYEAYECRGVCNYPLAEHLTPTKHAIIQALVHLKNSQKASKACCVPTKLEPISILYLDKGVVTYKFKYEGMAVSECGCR', 'kon', 'M⁻¹ s⁻¹', '5.4e+07'),
  ('GDF3 (ligand, UniProt Q9NR23 251-364, looked up) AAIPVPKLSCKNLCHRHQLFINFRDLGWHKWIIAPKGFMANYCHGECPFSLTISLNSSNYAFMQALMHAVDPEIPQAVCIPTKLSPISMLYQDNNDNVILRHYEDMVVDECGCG', 'kon', 'M⁻¹ s⁻¹', '1.2e+06'),
  ('activin B (ligand, UniProt P09529 293-407, looked up) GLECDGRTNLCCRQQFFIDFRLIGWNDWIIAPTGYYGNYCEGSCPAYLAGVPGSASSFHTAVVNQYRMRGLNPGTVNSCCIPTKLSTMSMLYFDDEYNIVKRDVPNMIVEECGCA', 'kon', 'M⁻¹ s⁻¹', '3.8e+06'),
  ('activin A (ligand, UniProt P08476 311-426, looked up) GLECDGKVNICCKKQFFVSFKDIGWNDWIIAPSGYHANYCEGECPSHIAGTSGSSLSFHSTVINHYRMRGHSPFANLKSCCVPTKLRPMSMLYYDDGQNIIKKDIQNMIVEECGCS', 'kon', 'M⁻¹ s⁻¹', '1.2e+07');

[1] GDF11 (ligand, UniProt O95390 299-407, looked up, also called BMP11) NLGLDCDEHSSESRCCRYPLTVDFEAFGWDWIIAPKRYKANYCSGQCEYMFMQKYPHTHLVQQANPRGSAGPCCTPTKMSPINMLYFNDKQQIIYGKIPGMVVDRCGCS
[2] BMP9 (ligand, UniProt Q9UK05 320-429, looked up, also called GDF2) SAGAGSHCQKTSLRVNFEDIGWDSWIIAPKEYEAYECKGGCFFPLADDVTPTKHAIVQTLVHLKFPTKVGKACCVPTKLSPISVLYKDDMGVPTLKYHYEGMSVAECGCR
From the recorded data, which exceeds the other in kon: 1 or 2 ? Returns: label corresponding to the selected item.
2

The reported numbers originate from patent US20190225669A1.
